These data points were gathered from patent US20210196796A1.

TESTED ON: T1, orthogonal hCD122 receptor (hoRb), hCD122 with H133D and Y134F (human, UniProt P14784 27-550)
T1 sequence: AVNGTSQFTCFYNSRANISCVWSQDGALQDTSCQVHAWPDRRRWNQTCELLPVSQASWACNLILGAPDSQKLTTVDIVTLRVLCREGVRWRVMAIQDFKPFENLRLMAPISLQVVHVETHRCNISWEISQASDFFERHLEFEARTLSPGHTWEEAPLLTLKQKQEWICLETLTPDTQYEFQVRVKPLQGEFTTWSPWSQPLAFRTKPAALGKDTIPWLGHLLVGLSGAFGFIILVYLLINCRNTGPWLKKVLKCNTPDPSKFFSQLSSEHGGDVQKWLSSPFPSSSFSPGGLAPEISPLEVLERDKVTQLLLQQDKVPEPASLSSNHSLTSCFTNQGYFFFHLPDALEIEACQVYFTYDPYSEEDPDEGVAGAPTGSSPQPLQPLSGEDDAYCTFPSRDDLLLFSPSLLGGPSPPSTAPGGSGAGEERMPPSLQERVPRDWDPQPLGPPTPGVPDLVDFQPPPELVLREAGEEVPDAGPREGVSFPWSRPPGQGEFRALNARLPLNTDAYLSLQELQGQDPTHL
ASSAY PROTOCOL: cell-based or functional assay
METRIC NAME: 3F8 Ortho Proliferation Signal 1:10 (cts/min)

| BINDER | METRIC NAME | MEAS VALUE |
| --- | --- | --- |
| Q74S, SQVLKA (ligand) APTSSSTKKTQLQLSQLLVLLKAILNGINNYKNPKLTRMLTFKFYMPKKATELKHLQCLEEELKPLEEVLNLASSKNFHLRPRDLISNINVIVLELKGSETTFMCEYADETATIVEFLNRWITFCQSIISTLT | 3F8 Ortho Proliferation Signal 1:10 | 32500 |
| ΔM23, SQVLK- (ligand) APTSSSTKKTQLQLSQLLVLLKILNGINNYKNPKLTRMLTFKFYMPKKATELKHLQCLEEELKPLEEVLNLAQSKNFHLRPRDLISNINVIVLELKGSETTFMCEYADETATIVEFLNRWITFCQSIISTLT | 3F8 Ortho Proliferation Signal 1:10 | 4410 |
| C125S, SQVLKA (ligand) APTSSSTKKTQLQLSQLLVLLKAILNGINNYKNPKLTRMLTFKFYMPKKATELKHLQCLEEELKPLEEVLNLAQSKNFHLRPRDLISNINVIVLELKGSETTFMCEYADETATIVEFLNRWITFSQSIISTLT | 3F8 Ortho Proliferation Signal 1:10 | 45000 |
| T3K, SQVLKA (ligand) APKSSSTKKTQLQLSQLLVLLKAILNGINNYKNPKLTRMLTFKFYMPKKATELKHLQCLEEELKPLEEVLNLAQSKNFHLRPRDLISNINVIVLELKGSETTFMCEYADETATIVEFLNRWITFCQSIISTLT | 3F8 Ortho Proliferation Signal 1:10 | 15100 |
